Cited source: patent US12643905B2

Measured IC50 of individual entries
# system.name: SARS-CoV-2 3CL-protease (Severe acute respiratory syndrome coronavirus 2)
# protocol.summary: SARS-CoV-2 3C-like (3CL) protease fluorescence assay (FRET)
# Assay type: biochemical
# condition.info: recombinant SARS-CoV-2 3CL-protease 10 nM, 30 min preincubation, run in duplicate; read-out: FRET IC50
parameter: IC50

| compound.structure.string | assay.result |
| --- | --- |
| CN(C(=O)C(=O)Nc1c(Cl)cccc1Cl)[C@@H](CC(C)(C)C)C(=O)N1C[C@]2(C[C@H]1C#N)C(=O)Nc1ccccc12 | < 100 nM |
| N#C[C@@H]1C[C@@]2(CN1C(=O)[C@H](CC1CC1)NC(=O)C(=O)Nc1c(F)cccc1C(F)(F)F)C(=O)Nc1ccccc12 | < 100 nM |
| CC(C)(C)C[C@H](NC(=O)C(=O)NC1(C)CC1)C(=O)N1C[C@]2(C[C@H]1C#N)C(=O)Nc1ccccc12 | < 100 nM |
| CC(C)(C)C[C@H](NC(=O)C(=O)NC1(C(F)(F)F)CC1)C(=O)N1C[C@]2(C[C@H]1C#N)C(=O)Nc1ccccc12 | < 100 nM |
| CC(C)C[C@H]1C(=O)N2C[C@]3(C[C@H]2C#N)C(=O)Nc2ccc(cc23)CCCCN(Cc2ccccc2)C(=O)C(=O)N1C | 100 to 1000 nM |
| Cc1cccc(C)c1NC(=O)C(=O)N[C@@H](CC(C)(C)C)C(=O)N1C[C@]2(C[C@H]1C#N)C(=O)Nc1ccccc12 | < 100 nM |
| CC(C)(C)C[C@H](NC(=O)C(=O)Nc1ccc2cc[nH]c2c1)C(=O)N1C[C@]2(C[C@H]1C#N)C(=O)Nc1ccccc12 | < 100 nM |
| CC(C)(C)C[C@@H](C(=O)N1C[C@]2(C[C@H]1C#N)C(=O)Nc1ccccc12)N(CC(F)(F)F)C(=O)C(=O)Nc1ccc(F)cc1 | 100 to 1000 nM |
| CC(C)(C)C[C@H](NC(=O)C(=O)NC1CC(F)(F)C1)C(=O)N1C[C@]2(C[C@H]1C#N)C(=O)Nc1ccccc12 | < 100 nM |
| N#C[C@@H]1C[C@@]2(CN1C(=O)[C@H](CC1CC1)NC(=O)C(=O)NC1(c3ccc(F)cc3F)CC1)C(=O)Nc1ccccc12 | < 100 nM |
| CC(C)(C)C[C@H](NC(=O)C(=O)Nc1ccc2cc(F)ccc2c1)C(=O)N1C[C@]2(C[C@H]1C#N)C(=O)Nc1ccccc12 | < 100 nM |
| [2H]C([2H])([2H])N(C(=O)C(=O)Nc1c(C(F)(F)F)cccc1C(F)(F)F)[C@@H](CC1CC1)C(=O)N1C[C@]2(C[C@H]1C#N)C(=O)Nc1ccccc12 | < 100 nM |
| CC(C)(C)C[C@H](NC(=O)C(=O)Nc1c(C(F)(F)F)cccc1C(F)(F)F)C(=O)N1C[C@]2(C[C@H]1C#N)C(=O)Nc1ccccc12 | < 100 nM |
| CC(C)(C)C[C@H](NC(=O)C(=O)Nc1cncc(C(F)(F)F)c1)C(=O)N1C[C@]2(C[C@H]1C#N)C(=O)Nc1ccccc12 | < 100 nM |
| CC(C)(C)C[C@H](NC(=O)C(=O)Nc1c(F)cncc1F)C(=O)N1C[C@]2(C[C@H]1C#N)C(=O)Nc1ccccc12 | < 100 nM |
| COc1cccc(C)c1NC(=O)C(=O)N[C@@H](CC(C)(C)C)C(=O)N1C[C@]2(C[C@H]1C#N)C(=O)Nc1ccccc12 | < 100 nM |
| N#C[C@@H]1C[C@@]2(CN1C(=O)[C@H](CC1CC1)NC(=O)C(=O)Nc1c(Cl)cc(Cl)cc1C(F)(F)F)C(=O)Nc1ccccc12 | < 100 nM |
| CC(C)(C)C[C@H](NC(=O)C(=O)Nc1c(F)cccc1Cl)C(=O)N1C[C@]2(C[C@H]1C#N)C(=O)Nc1ccccc12 | < 100 nM |
| CC(C)(C)C[C@H](NC(=O)C(=O)Nc1ncccc1C(F)(F)F)C(=O)N1C[C@]2(C[C@H]1C#N)C(=O)Nc1ccccc12 | < 100 nM |
| CC(C)(C)C[C@H](NC(=O)C(=O)NC1(c2ccccc2C(F)(F)F)CC1)C(=O)N1C[C@]2(C[C@H]1C#N)C(=O)Nc1ccccc12 | < 100 nM |
| CC(C)C[C@H]1C(=O)N2C[C@]3(C[C@H]2C#N)C(=O)Nc2ccc(cc23)CCCCCNC(=O)C(=O)N1C | 100 to 1000 nM |
| CC(C)(C)C[C@H](NC(=O)C(=O)Nc1ccc(C(F)(F)F)cn1)C(=O)N1C[C@]2(C[C@H]1C#N)C(=O)Nc1ccccc12 | < 100 nM |
| N#C[C@@H]1C[C@@]2(CN1C(=O)[C@H](CC1CC1)NC(=O)C(=O)Nc1cccnc1C(F)(F)F)C(=O)Nc1ccccc12 | < 100 nM |
| CC(C)(C)C[C@H](NC(=O)C(=O)c1ccccc1F)C(=O)N1C[C@]2(C[C@H]1C#N)C(=O)Nc1ccccc12 | 100 to 1000 nM |
| CC(C)(C)C[C@@H](C(=O)N1C[C@]2(C[C@H]1C#N)C(=O)Nc1ccccc12)N(CC(F)F)C(=O)C(=O)Nc1ccccc1 | 100 to 1000 nM |
